Taken from patent US10570179B2.

# procedure-text: Plasma stability assay
# Type: in vitro ADME, mouse
# condition-context: mouse, 10 μM
Numbered stars: 1 amine (or outer) side, 2 acyl side, 3 side chain; on linkers, the order of the positions; unused ones are H or OH. Bridge positions count the residues as written; N and C are the ends. Square brackets hold non-standard residues; d marks the D form. Peptide text beside a SMILES is read from it. * marks the point of attachment. Piperazine(2S-CO,4-Me) = CN1CCN[C@H](C(=O)O)C1; Phe(3-Me) = Cc1cccc(C[C@H](N)C(=O)O)c1; Pro(4R-Me) = C[C@H]1CN[C@H](C(=O)O)C1; CO = O=C([*:1])[*:2]; X2 = Fc1cc(N*)ccc1Cl
Mouse values for the compounds below.
endpoint-label: Mouse

{"compound": "Cc1cccc(C[C@H](NC(=O)Nc2ccc(Cl)cc2F)C(=O)N[C@H]2COC(=O)[C@@H]3C[C@@H](C)CN3C(=O)[C@H](C)NC(=O)[C@@H]3CCCCN3C(=O)[C@@H]3CCCN3C2=O)c1 [Compound 8]", "endpoint-label": "Mouse", "recorded-value": ">50 h"}
{"compound": "Cc1cccc(C[C@H](NC(=O)Nc2ccc(Cl)c(F)c2)C(=O)N[C@H]2COC(=O)[C@@H]3C[C@@H](C)CN3C(=O)[C@H](C)NC(=O)[C@@H]3CN(C)CCN3C(=O)[C@@H]3CCCN3C2=O)c1 [Compound 14] ({X2-CO}-[Phe(3-Me)]SP[Piperazine(2S-CO,4-Me)]A[Pro(4R-Me)]; ester 2-C)", "endpoint-label": "Mouse", "recorded-value": "9.55 ± 0.8 h"}

====

pEC50 values for the molecules below.
# tested-on: UniProt:Q2G036
# Sequence (Q2G036 whole entry): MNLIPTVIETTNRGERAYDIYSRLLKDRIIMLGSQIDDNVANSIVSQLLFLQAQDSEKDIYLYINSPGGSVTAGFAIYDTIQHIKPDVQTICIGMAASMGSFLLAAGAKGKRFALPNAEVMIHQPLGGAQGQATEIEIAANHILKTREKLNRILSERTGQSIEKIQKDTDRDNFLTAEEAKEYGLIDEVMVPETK
# procedure-text: Casein-BODIPY digestion assay (ClpP activation)
pEC50: −log10 of the molar value. Numbered stars: 1 amine (or outer) side, 2 acyl side, 3 side chain; on linkers, the order of the positions; unused ones are H or OH. Bridge positions count the residues as written; N and C are the ends. Square brackets hold non-standard residues; d marks the D form. Peptide text beside a SMILES is read from it. * marks the point of attachment. Phe(3-Me) = Cc1cccc(C[C@H](N)C(=O)O)c1; Pro(4S-Me) = C[C@@H]1CN[C@H](C(=O)O)C1; Pro(4R-Me) = C[C@H]1CN[C@H](C(=O)O)C1; Hyp = O=C(O)[C@@H]1C[C@@H](O)CN1; NH(3-Cl-phenyl) = Clc1cccc(N*)c1; NH(4-Cl-phenyl) = Clc1ccc(N*)cc1; NH(4-Et-phenyl) = CCc1ccc(N*)cc1; aThr = C[C@H](O)[C@H](N)C(=O)O; Pip = O=C(O)[C@@H]1CCCCN1; CO = O=C([*:1])[*:2]
endpoint-label: pEC50

{"molecule": "Cc1cccc(C[C@H](NC(=O)Nc2cccc(Cl)c2)C(=O)N[C@@H]2C(=O)N3C[C@H](O)C[C@H]3C(=O)N3CCCC[C@H]3C(=O)N[C@@H](C)C(=O)N3C[C@@H](C)C[C@H]3C(=O)O[C@H]2C)c1 [Compound 67] ({NH(3-Cl-phenyl)-CO}-[Phe(3-Me)][aThr][Hyp][Pip]A[Pro(4S-Me)]; ester 2-C)", "recorded-value": 6.36}
{"molecule": "CCc1ccc(NC(=O)N[C@@H](Cc2cccc(C)c2)C(=O)N[C@@H]2C(=O)N3C[C@H](O)C[C@H]3C(=O)N3CCCC[C@H]3C(=O)N[C@@H](C)C(=O)N3C[C@H](C)C[C@H]3C(=O)O[C@H]2C)cc1 [Compound 25] ({NH(4-Et-phenyl)-CO}-[Phe(3-Me)][aThr][Hyp][Pip]A[Pro(4R-Me)]; ester 2-C)", "recorded-value": 6.39}
{"molecule": "Cc1cccc(C[C@H](NC(=O)Nc2ccc(Cl)cc2F)C(=O)N[C@H]2COC(=O)[C@@H]3C[C@@H](C)CN3C(=O)[C@H](C)NC(=O)[C@@H]3CCCCN3C(=O)[C@@H]3CCCN3C2=O)c1", "recorded-value": 6.55}
{"molecule": "Cc1cccc(C[C@H](NC(=O)Nc2ccc(Cl)cc2)C(=O)N[C@@H]2C(=O)N3C[C@H](O)C[C@H]3C(=O)N3CCCC[C@H]3C(=O)N[C@@H](C)C(=O)N3C[C@@H](C)C[C@H]3C(=O)O[C@H]2C)c1 [Compound 66] ({NH(4-Cl-phenyl)-CO}-[Phe(3-Me)][aThr][Hyp][Pip]A[Pro(4S-Me)]; ester 2-C)", "recorded-value": 6.80}

====

# procedure-text: Plasma stability assay
# Format: in vitro ADME, mouse
# condition-context: mouse, 10 μM
Numbered stars: 1 amine (or outer) side, 2 acyl side, 3 side chain; on linkers, the order of the positions; unused ones are H or OH. Bridge positions count the residues as written; N and C are the ends. Square brackets hold non-standard residues; d marks the D form. Peptide text beside a SMILES is read from it. * marks the point of attachment. ξ: configuration not given here. Phe(3-Me) = Cc1cccc(C[C@H](N)C(=O)O)c1; NH(4-Cl-2-F-phenyl) = Fc1cc(Cl)ccc1N*; Pro(4R-Me) = C[C@H]1CN[C@H](C(=O)O)C1; Hyp = O=C(O)[C@@H]1C[C@@H](O)CN1; ξNMeThr = CNC(C(=O)O)[C@@H](C)O; aThr = C[C@H](O)[C@H](N)C(=O)O; Pip = O=C(O)[C@@H]1CCCCN1; CO = O=C([*:1])[*:2]
Mouse values for the compounds below.

{"compound": "Cc1cccc(C[C@H](NC(=O)Nc2ccc3c(c2)OCO3)C(=O)N[C@H]2COC(=O)[C@@H]3C[C@@H](C)CN3C(=O)[C@H](C)NC(=O)[C@@H]3CCCCN3C(=O)[C@@H]3CCCN3C2=O)c1 [Compound 23]", "unit-label": "h", "value-comparator": "=", "Mouse": 27.31}
{"compound": "Cc1cccc(C[C@H](NC(=O)Nc2ccc(Cl)cc2F)C(=O)N[C@H]2COC(=O)[C@@H]3C[C@@H](C)CN3C(=O)[C@H](C)NC(=O)[C@@H]3CCCCN3C(=O)[C@@H]3C[C@H](N)CN3C2=O)c1 [Compound 12]", "unit-label": "h", "value-comparator": "=", "Mouse": 18.63}
{"compound": "Cc1cccc(C[C@H](NC(=O)Nc2ccc(Cl)cc2F)C(=O)N[C@@H]2C(=O)N3CCC[C@H]3C(=O)N(C)C([C@@H](C)O)C(=O)N[C@@H](C)C(=O)N3C[C@H](C)C[C@H]3C(=O)O[C@H]2C)c1 (stereo partly drawn) [Compound 5] ({NH(4-Cl-2-F-phenyl)-CO}-[Phe(3-Me)][aThr]P[ξNMeThr]A[Pro(4R-Me)]; ester 2-C)", "unit-label": "h", "value-comparator": ">", "Mouse": 50}
{"compound": "Cc1cccc(C[C@H](NC(=O)Nc2ccc(Cl)cc2F)C(=O)N[C@@H]2C(=O)N3C[C@H](O)C[C@H]3C(=O)N3CCCC[C@H]3C(=O)N[C@@H](C)C(=O)N3C[C@H](C)C[C@H]3C(=O)O[C@H]2C)c1 [Compound 6] ({NH(4-Cl-2-F-phenyl)-CO}-[Phe(3-Me)][aThr][Hyp][Pip]A[Pro(4R-Me)]; ester 2-C)", "unit-label": "h", "value-comparator": ">", "Mouse": 50}

====

Mouse values for the compounds below.
# procedure-text: Plasma protein binding, rapid equilibrium dialysis
# Assay type: in vitro ADME, mouse
# condition-context: mouse, 4 h, 10 μM, pH 7.4
Numbered stars: 1 amine (or outer) side, 2 acyl side, 3 side chain; on linkers, the order of the positions; unused ones are H or OH. Bridge positions count the residues as written; N and C are the ends. Square brackets hold non-standard residues; d marks the D form. Peptide text beside a SMILES is read from it. * marks the point of attachment. ξ: configuration not given here. Phe(3-Me) = Cc1cccc(C[C@H](N)C(=O)O)c1; NH(4-Cl-2-F-phenyl) = Fc1cc(Cl)ccc1N*; Pro(4R-Me) = C[C@H]1CN[C@H](C(=O)O)C1; Propanoyl(3-NMe2) = CN(C)CCC(=O)*; Hyp = O=C(O)[C@@H]1C[C@@H](O)CN1; ξNMeThr = CNC(C(=O)O)[C@@H](C)O; aThr = C[C@H](O)[C@H](N)C(=O)O; Pip = O=C(O)[C@@H]1CCCCN1; X3 = c1cc2c(cc1N*)OCCO2; CO = O=C([*:1])[*:2]

{"compound": "Cc1cccc(C[C@H](NC(=O)Nc2ccc(Cl)cc2F)C(=O)N[C@H]2COC(=O)[C@@H]3C[C@@H](C)CN3C(=O)[C@H](C)NC(=O)[C@@H]3CCCCN3C(=O)[C@@H]3CCCN3C2=O)c1 [Compound 8]", "Mouse (%)": 98.9}
{"compound": "Cc1cccc(C[C@H](NC(=O)Nc2ccc(Cl)cc2F)C(=O)N[C@@H]2C(=O)N3CCC[C@H]3C(=O)N(C)C([C@@H](C)O)C(=O)N[C@@H](C)C(=O)N3C[C@H](C)C[C@H]3C(=O)O[C@H]2C)c1 (stereo partly drawn) [Compound 5] ({NH(4-Cl-2-F-phenyl)-CO}-[Phe(3-Me)][aThr]P[ξNMeThr]A[Pro(4R-Me)]; ester 2-C)", "Mouse (%)": 98.6}
{"compound": "Cc1cccc(C[C@H](NC(=O)Nc2ccc3c(c2)OCO3)C(=O)N[C@H]2COC(=O)[C@@H]3C[C@@H](C)CN3C(=O)[C@H](C)NC(=O)[C@@H]3CCCCN3C(=O)[C@@H]3CCCN3C2=O)c1 [Compound 23]", "Mouse (%)": 96.9}
{"compound": "Cc1cccc(C[C@H](NC(=O)Nc2ccc3c(c2)OCCO3)C(=O)N[C@H]2COC(=O)[C@@H]3C[C@@H](C)CN3C(=O)[C@H](C)NC(=O)[C@@H]3CCCCN3C(=O)[C@@H]3CCCN3C2=O)c1 [Compound 22]", "Mouse (%)": 98.4}
{"compound": "Cc1cccc(C[C@H](NC(=O)Nc2ccc3c(c2)OCCO3)C(=O)N[C@@H]2C(=O)N3CCC[C@H]3C(=O)N3CCCC[C@H]3C(=O)N[C@@H](C)C(=O)N3C[C@H](C)C[C@H]3C(=O)O[C@H]2C)c1 [Compound 21] ({X3-CO}-[Phe(3-Me)][aThr]P[Pip]A[Pro(4R-Me)]; ester 2-C)", "Mouse (%)": 99.2}
{"compound": "Cc1cccc(C[C@H](NC(=O)Nc2ccc3c(c2)OCCO3)C(=O)N[C@@H]2C(=O)N3C[C@H](O)C[C@H]3C(=O)N3CCCC[C@H]3C(=O)N[C@@H](C)C(=O)N3C[C@H](C)C[C@H]3C(=O)O[C@H]2C)c1 [Compound 28] ({X3-CO}-[Phe(3-Me)][aThr][Hyp][Pip]A[Pro(4R-Me)]; ester 2-C)", "Mouse (%)": 98.1}
{"compound": "Cc1cccc(C[C@H](NC(=O)Nc2ccc(Cl)cc2F)C(=O)N[C@@H]2C(=O)N3C[C@H](OC(=O)CCN(C)C)C[C@H]3C(=O)N3CCCC[C@H]3C(=O)N[C@@H](C)C(=O)N3C[C@H](C)C[C@H]3C(=O)O[C@H]2C)c1 [Compound 46] ({NH(4-Cl-2-F-phenyl)-CO}-[Phe(3-Me)][aThr][Hyp](Propanoyl(3-NMe2))[Pip]A[Pro(4R-Me)]; ester 2-C)", "Mouse (%)": 93.0}
